The reported numbers originate from PubChem BioAssay.

- Test system: Lefty1
- protocolDescription: Lefty1 binders on small-molecule microarrays, primary screen, biochemical, small-molecule microarray, 635/667 nm fluorescence (AID 1139)
- conditionInfo: small-molecule microarray binding, fluorescence 635/667; higher = more signal
measurementName: composite z-score
Simply state the number, no unit and no words.

Example entries and their recorded answers appear below.
compound	composite z-score
CN1C2C=C(CCCO)C(C3C(=O)N(C(N)=O)C(=O)C32)C1c1ccc(CN2CCCC2)cc1 (stereo unspecified)	-0.484
[N-]=[N+]=Nc1ccccc1C[C@]1(C(=O)NCC(O)CO)N=C(c2ccc(OCCCO)cc2)O[C@H]1c1ccccc1N=[N+]=[N-] (stereo partly specified)	-0.435
CCOC(=O)C[C@H]1[C@H](OC(=O)c2cc3ccccc3oc2=O)[C@@H](NC(=O)Cc2ccc(OC)cc2)c2cc(OCCCO)ccc2N1C(=O)c1ccccc1	0.248

IN: Reported composite z-score, compound `C=C(CCCC)C(=O)CC[C@H](OC(=O)c1cccnc1)c1ccccc1OCCO` : ____
OUT: 0.785

IN: Item: `COC(=O)C(CC#Cc1ccc2c(c1)[C@]1(C(=O)N2)[C@H](c2ccc(O)cc2)N2[C@H](c3ccccc3)[C@H](c3ccccc3)OC(=O)[C@H]2[C@@H]1C(=O)Nc1nc2ccccc2s1)C(=O)OC`
OUT: 1.23

IN: Item: `CC(C)[C@@H](CO)NC(=O)[C@H]1[C@@H](c2ccccc2)N(c2ccccc2)O[C@@H]1C`
OUT: 0.216
